# target: T1, Homo sapiens Beta-Nerve Growth Factor (beta-NGF) (Homo sapiens, UniProt P01138 122-241)
# T1 construct: Biotinylated and held on neutravidin plates in the ELISA; also called huNGF; B-NGF
# T1 sequence (P01138 122-241): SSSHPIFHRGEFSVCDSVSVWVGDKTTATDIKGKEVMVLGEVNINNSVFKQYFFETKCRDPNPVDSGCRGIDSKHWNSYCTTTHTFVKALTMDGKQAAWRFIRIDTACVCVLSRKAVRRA
# test: antigen binding ELISA: biotinylated NGF on neutravidin plates, anti-human Fc-HRP, OD at 450 nm
Kindly apply the following: satisfied if EC50 is less than 0.3 nM, not satisfied in every other case.

Antibody Ab14 (antibody, human IgG1, kappa, N297A, V domains shown) VH: EVQLVESGGGLVQPGGSLRLSCAASGFTVSTYWMSWVRQAPGKGLEWVGDIYFSNEETNYASSAKGRFTISRDNSKNTLYLQMNSLRAEDTAVYYCARGSPDVDIGIDMWGPGTLVTVSS VL: DIQMTQSPSSLSASVGDRVTITCQSSQNVYKNNYLSWYQQKPGKVPKLLIYKASTLASGVPSRFSGSGSGTDFTLTISSLQPEDVATYYCAGGYTSSSDNAFGGGTKVEIKR    not satisfied
Antibody Ab16 (antibody, human IgG1, kappa, N297A, V domains shown) VH: QSVEEFGGRLVTPGTPLTLTCTVSGFSLNNYAMTWVRQAPGKGLEWIGIIGSIGTTYYASWAKGRFFISKTSTTVDLKIISPTTEDTATYFCARDAGVTVDGYGYYFNIWGPGTLVTVSS VL: ALVMTQTPSSTSEPVGGTVTINCQASQNIGNDLSWYQQKPGQPPELLIYSTSKLATGVPKRFSGSRSGTQFTLTISDLECDDAATYYCLGVYSYISDDGNAFGGGTEVVVKR    not satisfied
Antibody Ab7 (antibody, human IgG1, kappa, N297A, V domains shown) VH: QEQLKESGGRLVTPGTPLTLTCTVSGFSLSSYAMIWVRQAPGKGLEYIGYIDTDTSAYYASWVKGRFTISRTSTTVDLKITSPTTEDTATYFCARSYAAYGGYPATFDPWGPGTLVTVSS VL: DVVMTQTPASVSQPVGGTVTIKCQASEDIYNLLAWYQQKPGQPPKLLIYSASTLASGVPSRFKGSGSGTEYTLTISGLECADAATYYCQNNYLVTTYGVAFGGGTEVVVKR    satisfied

Asked: Here's an entry: Antibody Ab13 (antibody, human IgG1, kappa, N297A, V domains shown) VH: QSVEASGGRLVTPGTPLTLTCTASGFSLSTYWMSWVRQAPGKGLEWIGDIYFSNEETNYASWAKGRFTISKTSTTVDLNVISPTTEDTATYFCARGSPDVDIGIDMWGPGTLVTVSS VL: AAVLTQTPSPVSAAVGGTVSISCQSSQNVYKNNYLSWYQQKPGQPPKLLIYKASTLASGVPSRFKGGGSGTDFTLTISDVQCDAAATYYCAGGYTSSSDNAFGGGTEVVVKR . Is its EC50 below 0.3 nM?
Given back: not satisfied
